tested on: HTT; experiment: Gene panel canonical junction qPCR assay, HTT CJ mRNA (Table 7); type: cell-based, human; conditions: Homo sapiens, read-out: HTT CJ mRNA decrease IC50
assayMetric: IC50

1) CC1(C)CC(Nc2ccc3c(n2)COc2cc(-n4cccn4)ccc2-3)CC(C)(C)N1 = 1000 to 10000 nM
2) COc1cc(-c2ccc3c(c2)COc2nc(N4CCC(NC(C)(C)C)CC4)ccc2-3)cnn1 = > 10000 nM
3) FC1(F)CC2CC(Nc3ccc4c(n3)OCc3cc(-n5nccn5)ccc3-4)CC1N2 (stereo not drawn) = 100 to 1000 nM
4) CC(C)(C)N[C@H]1CCN(c2ccc3c(n2)OCc2cc(-c4cn[nH]c4)ccc2-3)C1 = 100 to 1000 nM
5) CN(c1ccc2c(c1)CCOc1cc(-n3cccn3)ccc1-2)[C@@H]1C[C@H]2CC[C@@H](C1)N2 = > 10000 nM
6) COc1cc(-c2ccc3c(c2)COc2nc(N4CCC(NC5CCC5)C4)ccc2-3)cnn1 (stereo not drawn) = 100 to 1000 nM
7) CN(c1ccc2c(n1)OCCc1cc(-c3cn[nH]c3)ccc1-2)C1CC(C)(C)NC(C)(C)C1 = > 10000 nM
8) CN(c1ccc2c(n1)OCc1cc(-n3ccnn3)ccc1-2)[C@@H]1C[C@H]2CC[C@@H](C1)N2 = 100 to 1000 nM
9) CN(c1ccc2c(n1)OCc1cc(-c3cnn(C)c3)ccc1-2)[C@@H]1C[C@H]2CC[C@@H](C1)N2 = < 100 nM
10) CC(C)Oc1cnnc(-c2ccc3c(c2)COc2nc(N4CCC(NC(C)(C)C)C4)ccc2-3)c1 (stereo not drawn) = > 10000 nM
11) CN(c1ccc2c(n1)OCc1cc(-n3cccn3)ccc1-2)C1CC(C)(C)NC(C)(C)C1 = 1000 to 10000 nM
12) COc1cc(-c2ccc3c(c2)COc2nc(N4CCN[C@@H](C(C)C)C4)ccc2-3)cnn1 = < 100 nM
13) Cc1ncc(-c2ccc3c(c2)COc2nc(N(C)[C@@H]4C[C@H]5CC[C@@H](C4)N5)ccc2-3)o1 = < 100 nM
14) c1cnn(-c2ccc3c(c2)COc2nc(N4CC5(CCCNC5)C4)ccc2-3)c1 = > 10000 nM
15) CCOc1cc(-c2ccc3c(c2)COc2nc(N4CCC(NC(C)(C)C)C4)ccc2-3)cnn1 (stereo not drawn) = 100 to 1000 nM
16) CN(c1ccc2c(n1)OCc1cc(-c3cn[nH]c3)ccc1-2)C1CCNCC1 = 100 to 1000 nM
17) COc1cc(-c2ccc3c(c2)COc2nc(N(C)[C@H]4C[C@H]5COC[C@@H](C4)N5)ccc2-3)cnn1 = > 10000 nM
18) CN(c1cnc2c(n1)OCc1cc(-c3cn[nH]c3)ccc1-2)[C@@H]1C[C@H]2CC[C@@H](C1)N2 = 100 to 1000 nM
19) CN(c1ccc2c(c1)OCc1cc(-c3cn[nH]c3)ccc1-2)[C@@H]1C[C@H]2CC[C@@H](C1)N2 = > 10000 nM
20) c1cnn(-c2ccc3c(c2)OCCc2cc(N[C@@H]4C[C@H]5CC[C@@H](C4)N5)ccc2-3)c1 = > 10000 nM
21) COc1cc(-c2ccc3c(c2)COc2nc(N4CCC(N(C)C)C4)ccc2-3)cnn1 (stereo not drawn) = 100 to 1000 nM
22) CN(c1ccc2c(n1)OCc1cc(-c3cn[nH]c3)ccc1-2)[C@@H]1C[C@H]2CC[C@@H](C1)N2 = < 100 nM
23) c1cnn(-c2ccc3c(c2)COc2nc(N[C@@H]4C[C@H]5CC[C@@H](C4)N5)ccc2-3)c1 = 100 to 1000 nM
24) CN(c1ccc2c(n1)OCc1cc(-c3ccc(=O)n(C)c3)ccc1-2)[C@@H]1C[C@H]2CC[C@@H](C1)N2 = 100 to 1000 nM
25) CC1(C)CC(Nc2ccc3c(n2)OCc2cc(-n4cccn4)ccc2-3)CC(C)(C)N1 = 100 to 1000 nM
26) CN(c1ccc2c(n1)OCc1cc(-n3cccn3)ccc1-2)C1CCNCC1 = > 10000 nM
27) c1cnn(-c2ccc3c(c2)COc2nc(O[C@@H]4C[C@H]5CC[C@@H](C4)N5)ccc2-3)c1 = 100 to 1000 nM
28) CN1C[C@@H]2CN(c3ccc4c(n3)OCc3cc(-n5cccn5)ccc3-4)C[C@@H]2C1 = 1000 to 10000 nM
29) CN1CCC2(CC1)CCN2c1ccc2c(n1)OCc1cc(-c3cn[nH]c3)ccc1-2 = > 10000 nM
30) COc1cc(-c2ccc3c(c2)COc2nc(OC4CC(C)(C)NC(C)(C)C4)ccc2-3)cnn1 = < 100 nM
